Target: 5-HT4 receptor (Rattus norvegicus)
Construct: esophagus smooth muscle, freshly removed from male Wistar rats; from tissue; host or cells: esophagus smooth muscle of male Wistar rats
Sequence (Q62758 whole entry): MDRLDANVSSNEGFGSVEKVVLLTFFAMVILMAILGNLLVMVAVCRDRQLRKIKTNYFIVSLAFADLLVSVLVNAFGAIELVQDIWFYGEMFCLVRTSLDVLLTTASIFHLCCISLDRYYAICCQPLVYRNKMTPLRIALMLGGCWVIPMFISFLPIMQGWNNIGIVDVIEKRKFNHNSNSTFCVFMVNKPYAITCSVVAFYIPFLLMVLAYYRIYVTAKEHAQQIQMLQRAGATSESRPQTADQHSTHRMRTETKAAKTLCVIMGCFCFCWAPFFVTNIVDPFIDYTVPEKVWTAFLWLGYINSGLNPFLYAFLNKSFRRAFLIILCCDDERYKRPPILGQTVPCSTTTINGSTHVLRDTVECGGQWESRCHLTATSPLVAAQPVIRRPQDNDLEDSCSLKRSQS
Experiment: 5-HT4 receptor antagonism in carbamylcholine-contracted isolated esophagus smooth muscle (antagonism of serotonin-induced relaxation)
Set-up: species or system male Wistar rats
Counter-ions that a name gives are not always drawn.
Bucketed by reported Kb, buckets being bottom end = under 4 nM, midrange = from 4 nM up to 10 nM, top end = 10 nM and over

Which bin, given its Kb, does CC(=O)NC1CCN(CCNC(=O)c2nn(C(C)C)c3ccccc23)CC1 [Example 28, oxalate] occupy?
midrange

Using the reported Kb, which band applies to CCCC(=O)NC1CCN(CCNC(=O)c2nn(C(C)C)c3ccccc23)CC1 [Example 30, oxalate] ?
top end

***
Which of the defined bands does the recorded Kb of CC(C)n1nc(C(=O)NCCN2CCC(NC(=O)Nc3ccc(F)cc3)CC2)c2ccccc21 [Example 36, oxalate] sit within?
top end

Hey, which category is CC(C)n1nc(C(=O)NCCN2CCC(NC(=O)C(C)(C)C)CC2)c2ccccc21 [Example 33, oxalate] in, do you know?
bottom end

Which bin, given its Kb, does CC(C)n1nc(C(=O)NCCN2CCC(NC(=O)OCc3ccccc3)CC2)c2ccccc21 [Example 8, oxalate] occupy?
bottom end

Class label required: CC(C)n1nc(C(=O)NCCN2CCOCC2)c2ccccc21 [Example 14, hydrochloride]
top end

Exam item: assign `CC(C)n1nc(C(=O)NCCN2CCC(Cc3ccccc3)CC2)c2ccccc21` to the correct category.
top end

Quick check: band for CC(C)n1nc(C(=O)NCCN2CCC(NS(C)(=O)=O)CC2)c2ccccc21 [Example 24, oxalate]
top end

Class label required: CC(C)n1nc(C(=O)NCCCN2CCCCC2)c2ccccc21 [Example 4, hydrochloride]
midrange

Band for the recorded Kb of `CCCCC(=O)NC1CCN(CCNC(=O)c2nn(C(C)C)c3ccccc23)CC1` ?
top end

Please let me know in which category the item CC(C)n1nc(C(=O)NCCCCN2CCCCC2)c2ccccc21 [Example 6, oxalate] belongs.
midrange

Place this compound in its band: CC(C)n1nc(C(=O)NCCN2CCC(NC(=O)C34CC5CC(C3)C(O)C(C5)C4)CC2)c2ccccc21 (stereo not drawn) [Example 38, oxalate]
bottom end

Looking at CC(C)n1nc(C(=O)NCCN2CCC(NC(=O)C34CC5CC(CC(O)(C5)C3)C4)CC2)c2ccccc21 [Example 37, oxalate] , which class would you pick?
bottom end

Assign a category based on measured Kb for CC(C)C(=O)NC1CCN(CCNC(=O)c2nn(C(C)C)c3ccccc23)CC1 [Example 32, oxalate] and give only the class name.
bottom end

Which bin, given its Kb, does CC(C)n1nc(C(=O)NCCN2CCCC2)c2ccccc21 [Example 10, hydrochloride] occupy?
top end

Note: place this compound into its band. Item: CC(C)n1nc(C(=O)NCCN2CCC(NC(=O)C34CC5CC(CC(C5)C3)C4)CC2)c2ccccc21 [Example 27, oxalate]
bottom end

Classify this compound: CCC(=O)NC1CCN(CCNC(=O)c2nn(C(C)C)c3ccccc23)CC1 [Example 29, oxalate]
bottom end

Each compound maps to one class by Kb. Which class for CC(C)n1nc(C(=O)NCCN2CCC(N)CC2)c2ccccc21 [Example 23, dioxalate] ?
top end

Please classify: CC(C)n1nc(C(=O)NCCN2CCC(NC(=O)c3ccccc3)CC2)c2ccccc21 [Example 25, oxalate]
bottom end

Which category fits this record: `CC(C)n1nc(C(=O)NCCN2CCC(NC(=O)NCc3ccccc3)CC2)c2ccccc21`
midrange

Using the reported Kb, which band applies to CC(C)n1nc(C(=O)NCCN2CCN(C(=O)c3ccccc3)CC2)c2ccccc21 [Example 18, oxalate] ?
top end

====

Target: 5-HT4 receptor (Rattus norvegicus)
Construct: esophagus smooth muscle, freshly removed from male Wistar rats; from tissue; host or cells: esophagus smooth muscle of male Wistar rats
Test: 5-HT4 receptor antagonism in carbamylcholine-contracted isolated esophagus smooth muscle (antagonism of serotonin-induced relaxation)
Set-up: species or system male Wistar rats
readout_name: Kb (nM)
Your answer is read as nM, so omit the unit and give the number.

For record CC(C)n1nc(C(=O)NCCN2CCN(Cc3ccccc3)CC2)c2ccccc21 [Example 16] the listed Kb is 10

====

Attribute: Kb
Target: 5-HT4 receptor (Rattus norvegicus)
Construct: esophagus smooth muscle, freshly removed from male Wistar rats; from tissue; host or cells: esophagus smooth muscle of male Wistar rats
Assay: 5-HT4 receptor antagonism in carbamylcholine-contracted isolated esophagus smooth muscle (antagonism of serotonin-induced relaxation)
Design: species or system male Wistar rats
Structures can show the parent of a compound that is named as a salt.
Use nM as the unit, but write only the number.

Below, 4 molecules whose answers are already recorded.
# Kb (molecule: `CC(C)n1nc(C(=O)NCCN2CCC(NC(=O)Nc3ccccc3)CC2)c2ccccc21` ) is 10

What the record says about CC(C)n1nc(C(=O)NCCN2CCCCCC2)c2ccccc21 [Example 12, hydrochloride] : Kb is 10

Given item CC(C)n1nc(C(=O)NCCN2CCCCC2)c2ccccc21 [Example 2, hydrochloride] , the value recorded as its Kb is 10

Lab book: Kb of CC(C)n1nc(C(=O)NCCN2CCc3ccccc3C2)c2ccccc21 [Example 22, oxalate] noted as 10

Now for another entry.
The molecule CC(C)n1nc(C(=O)NCCN2CCC(NC(=O)Cc3ccccc3)CC2)c2ccccc21 [Example 26, oxalate] showed Kb equal to 3.98
